Biological target: T1, EsCas13d, nuclease-dead (Eubacterium siraeum, UniProt B0MS50, R295A;H300A;R849A;H854A)
T1 sequence: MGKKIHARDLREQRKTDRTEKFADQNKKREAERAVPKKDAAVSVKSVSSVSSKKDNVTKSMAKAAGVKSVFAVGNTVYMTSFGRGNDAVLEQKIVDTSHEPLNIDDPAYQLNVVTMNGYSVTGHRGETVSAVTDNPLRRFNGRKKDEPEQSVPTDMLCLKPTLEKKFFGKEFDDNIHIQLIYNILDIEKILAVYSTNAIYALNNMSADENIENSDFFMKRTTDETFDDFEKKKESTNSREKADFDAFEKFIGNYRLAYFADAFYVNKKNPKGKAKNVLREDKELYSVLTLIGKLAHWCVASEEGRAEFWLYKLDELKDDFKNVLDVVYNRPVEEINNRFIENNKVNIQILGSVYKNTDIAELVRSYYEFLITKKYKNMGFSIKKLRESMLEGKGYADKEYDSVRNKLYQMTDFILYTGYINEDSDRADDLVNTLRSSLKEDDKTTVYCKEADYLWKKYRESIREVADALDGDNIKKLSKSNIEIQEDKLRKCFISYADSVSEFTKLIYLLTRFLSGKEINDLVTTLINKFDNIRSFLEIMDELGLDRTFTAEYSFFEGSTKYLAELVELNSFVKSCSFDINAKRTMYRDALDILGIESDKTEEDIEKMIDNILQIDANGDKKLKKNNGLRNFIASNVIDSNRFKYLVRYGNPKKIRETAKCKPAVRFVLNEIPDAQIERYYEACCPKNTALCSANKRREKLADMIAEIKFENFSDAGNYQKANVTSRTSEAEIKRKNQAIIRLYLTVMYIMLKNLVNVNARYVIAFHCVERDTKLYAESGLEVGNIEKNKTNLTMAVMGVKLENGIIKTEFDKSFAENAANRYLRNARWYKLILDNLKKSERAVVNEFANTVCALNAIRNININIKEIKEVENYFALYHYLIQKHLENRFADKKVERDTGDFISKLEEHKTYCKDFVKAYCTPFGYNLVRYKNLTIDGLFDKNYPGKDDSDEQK
Assay: crRNA (strand 1, pre-loaded); Mg2+; 40 mM Tris-HCl pH 7.5, 150 mM NaCl, 6 mM MgCl2, 1 mM DTT, 0.1% Tween-20, 0.2 mg/ml BSA; 25 C; 10 min per concentration, then washed
Conditions: tags: His6-TwinStrep-SUMO cleaved; N-terminal SNAP kept (SNAP-Surface 488); label: 3' end held by stalled T7 RNA polymerase
quantity.measured: Kd (nM)
Give just the number in nM; leave the unit off.

Data request: What value of measured Kd is listed for target 1 MT 5'PFS UAA 3'PFS ACG (mixed) RNA 1: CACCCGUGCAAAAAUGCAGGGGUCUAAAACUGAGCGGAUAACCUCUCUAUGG RNA 2: GGGAAUGGAUCCACAUCUACGAAUUCUAACCAUAGAGAGGUUAUCCGCUCAACGAGAUCGGAAGAGCACACGU ?
Data returned: 25

Data request: # Kd lookup, item target 1 insU 3' of 14,insC 3' of 8 (mixed) RNA 1: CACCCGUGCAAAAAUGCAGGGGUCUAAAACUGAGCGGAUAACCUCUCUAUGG RNA 2: GGGAAUGGAUCCACAUCUACGAAUUCGUACCAUAGAGAUGGUUAUCCCGCUCACCGAGAUCGGAAGAGCACACGU
Data returned: 90

Data request: If you can, please state the reported Kd value of target 1 insU 3' of 18,insA 3' of 11 (mixed) RNA 1: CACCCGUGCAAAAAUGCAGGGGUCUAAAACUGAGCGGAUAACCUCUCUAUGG RNA 2: GGGAAUGGAUCCACAUCUACGAAUUCGUACCAUAUGAGAGGUAUAUCCGCUCACCGAGAUCGGAAGAGCACACGU .
Data returned: 68
